Target: rabbit serum albumin (rabbit, UniProt P49065 25-608)
Sequence (P49065 25-608 limits assumed): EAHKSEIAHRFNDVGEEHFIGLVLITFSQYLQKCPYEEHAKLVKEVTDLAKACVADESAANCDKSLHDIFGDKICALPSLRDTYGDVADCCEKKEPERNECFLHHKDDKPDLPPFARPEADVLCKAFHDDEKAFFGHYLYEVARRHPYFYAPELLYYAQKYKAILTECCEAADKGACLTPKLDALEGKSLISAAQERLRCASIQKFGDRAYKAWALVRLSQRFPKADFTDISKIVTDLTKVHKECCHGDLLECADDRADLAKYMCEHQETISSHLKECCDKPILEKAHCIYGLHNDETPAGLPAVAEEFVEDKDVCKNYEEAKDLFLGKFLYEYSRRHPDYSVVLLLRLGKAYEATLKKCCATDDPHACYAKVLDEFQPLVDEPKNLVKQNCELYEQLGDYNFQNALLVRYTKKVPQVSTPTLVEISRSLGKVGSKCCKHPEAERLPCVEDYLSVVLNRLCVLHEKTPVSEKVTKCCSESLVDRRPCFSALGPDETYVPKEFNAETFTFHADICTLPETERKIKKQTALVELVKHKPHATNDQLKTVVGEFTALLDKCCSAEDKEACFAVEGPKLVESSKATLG
Assay: binding ELISA, coated albumin, pH 7.4
pEC50: −log10 of the molar value.
Property name: pEC50

>  <Binder>
HSA-36 (designed binder) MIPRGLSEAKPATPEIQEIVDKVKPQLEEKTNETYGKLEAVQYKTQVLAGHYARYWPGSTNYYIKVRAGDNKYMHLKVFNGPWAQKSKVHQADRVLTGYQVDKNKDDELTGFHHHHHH

>  <Reported>
6.06

$$$$

P: HSA-31 (designed binder) MIPRGLSEAKPATPEIQEIVDKVKPQLEEKTNETYGKLEAVQYKTQVLAVWGPEYQHQSTNYYIKVRAGDNKYMHLKVFNGPNAGWPLVPEADRVLTGYQVDKNKDDELTGFHHHHHH
Q: HSA-18 (designed binder, also called HSA-18 monomer) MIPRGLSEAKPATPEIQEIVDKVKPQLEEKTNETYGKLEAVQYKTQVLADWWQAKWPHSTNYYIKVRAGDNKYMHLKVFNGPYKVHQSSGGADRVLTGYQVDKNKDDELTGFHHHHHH
R: HSA-41 (designed binder, also called HSA-41 parent; HSA-41 AH parent) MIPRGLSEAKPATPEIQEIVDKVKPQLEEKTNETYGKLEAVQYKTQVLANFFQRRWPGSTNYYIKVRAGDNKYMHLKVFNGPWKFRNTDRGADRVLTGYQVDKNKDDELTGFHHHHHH
Kindly order the items shown according to pEC50, from the highest value down. # output: labels, in the requested order
P, R, Q
(P: 6.68, R: 6.42, Q: 6.07)
